assay-text: Compound was evaluated for average apparent binding constant (Kd ) using Scatchard analysis to dTMP synthetase enzyme from chick embryo
measured-quantity: Kd (µM)
Numbers only here, please. The scale is µM.

input: If you can, please state the reported Kd value of O=c1nc(NO)ccn1[C@H]1C[C@H](O)[C@@H](COP(=O)(O)O)O1 .
output: 1

Where these numbers come from: BindingDB's records for doi:10.1021/jm00376a004
